Target: Bile acid receptor (Homo sapiens)
Sequence (Q96RI1 whole entry): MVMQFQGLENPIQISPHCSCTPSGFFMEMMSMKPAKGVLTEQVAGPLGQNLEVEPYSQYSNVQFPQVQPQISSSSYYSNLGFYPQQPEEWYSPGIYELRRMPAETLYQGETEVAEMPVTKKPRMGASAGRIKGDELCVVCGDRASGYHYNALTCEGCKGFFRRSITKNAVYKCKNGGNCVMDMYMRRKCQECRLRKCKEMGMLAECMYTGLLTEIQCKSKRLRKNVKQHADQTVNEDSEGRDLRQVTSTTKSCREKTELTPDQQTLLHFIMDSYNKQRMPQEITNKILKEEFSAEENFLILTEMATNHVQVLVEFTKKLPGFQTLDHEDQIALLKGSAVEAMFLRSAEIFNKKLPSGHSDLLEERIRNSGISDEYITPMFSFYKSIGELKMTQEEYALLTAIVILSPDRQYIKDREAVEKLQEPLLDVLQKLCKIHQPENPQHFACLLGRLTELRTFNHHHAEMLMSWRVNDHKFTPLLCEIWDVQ
Experiment: Agonist activity at human FXR expressed in HEK293T cells assessed as BSEP promoter driven cellular transcriptional activity after 24 hrs by luciferase reporter gene assay
Format: cell-based, HEK-293T
Label key: TRUE means EC50 under 10 nM; FALSE means EC50 of 10 nM or more.

Observe how each entry below is paired with its result.
{"columns": ["MOLECULE", "GROUP"],
 "data": [
  ["O=C(O)c1ccc2nc(N3CCC(OCc4c(-c5c(Cl)cccc5Cl)noc4C4CC4)CC3)sc2c1", "TRUE"],
  ["Cc1cc(C(=O)O)cc2sc(N3C4CCC3CC(OCc3c(-c5ccccc5OC(F)(F)F)noc3C3CC3)C4)nc12 (stereo unspecified)", "TRUE"],
  ["O=C(O)c1ccc2nc(N3CCCC(OCc4c(-c5ccccc5OC(F)(F)F)noc4C4CC4)CC3)sc2c1 (stereo unspecified)", "TRUE"],
  ["COc1cc(C(=O)O)cc2sc(N3C4CCC3CC(OCc3c(-c5ccccc5OC(F)(F)F)noc3C3CC3)C4)nc12 (stereo unspecified)", "TRUE"],
  ["O=C(O)c1ccc2nc(N3C4CCC3CC(OCc3c(-c5ccccc5OC(F)(F)F)noc3C3CC3)C4)sc2c1 (stereo unspecified)", "TRUE"]
]}

Query: I'd appreciate it if you could check whether O=C(O)c1ccc2nc(N3CC[C@@H](OCc4c(-c5c(Cl)cccc5Cl)noc4C4CC4)C3)sc2c1 has EC50 smaller than 10 nM.
Reply: FALSE

Query: Is 10 nM strictly greater than the molecule's reported EC50? molecule: O=C(O)c1cc(F)c2nc(N3C4CCC3CC(OCc3c(-c5ccccc5C(F)(F)F)noc3C3CC3)C4)sc2c1 (stereo unspecified)
Reply: TRUE

Query: Find out if reported EC50 for O=C(O)c1ccc2nc(N3CC(OCc4c(-c5ccccc5OC(F)(F)F)noc4C4CC4)C3)sc2c1 is less than 10 nM
Reply: FALSE

Query: Determine if O=C(O)c1cc(F)c2nc(N3C4CCC3CC(OCc3c(-c5ccccc5OC(F)F)noc3C3CC3)C4)sc2c1 (stereo unspecified) shows EC50 strictly lower than 10 nM.
Reply: TRUE

Query: Is the reported EC50 for O=C(O)c1ccc2nc(N3CCC(OCc4c(-c5ccccc5C(F)(F)F)noc4C4CC4)CC3)sc2c1 strictly below 10 nM?
Reply: FALSE

Query: Lab note: confirm whether the reported EC50 for this molecule is below 10 nM, equality not counting. molecule: O=C(O)c1ccc2nc(N3CCC(OCc4c(-c5c(F)cccc5F)noc4C4CC4)CC3)sc2c1
Reply: FALSE

====

Experiment: Volume of distribution at steady state in dog at 0.5 mg/kg, iv or 2 mg/kg, po administered via gavage by LC-MS/MS analysis
Format: ADME, organism-based, Canis lupus familiaris
Details: in vivo, read-out: Vdss
MEASURE: Vd (L/kg)
// note: answer is a bare numeric in L/kg

Per the records, this molecule ( O=C(O)c1cc(F)c2nc(N3C4CCC3CC(OCc3c(-c5ccccc5OC(F)(F)F)noc3C3CC3)C4)sc2c1 (stereo unspecified) ) has Vd equal to 0.46

====

Test: Drug uptake in Sprague-Dawley rat plasma at 0.01 mg/kg, po qd administered via gavage measured 1 hr post last dose on day 14 by LC-MS/MS analysis
Assay type: ADME, organism-based
MEASURE: concentration at 1 h (nM)
Field: numeric (nM). Do not append units.

Note to self: concentration at 1 h recorded for O=C(O)c1cc(F)c2nc(N3C4CCC3CC(OCc3c(-c5ccccc5OC(F)(F)F)noc3C3CC3)C4)sc2c1 (stereo unspecified) was 0.37

// provenance: ChEMBL document CHEMBL4028903
